Origin of values: the supplement of paper PMC10307832

relative viability for assorted molecules
Test system: NCI-H322M
protocol_description: relative viability (nuclei count vs DMSO), 5 days (fraction); higher = more cells survive
assay_conditions: first compound 0.000632 µM
observation_type: relative viability

1) CC(=O)O[C@@]12CO[C@@H]1C[C@H](O)[C@@]1(C)C(=O)[C@H](O)C3=C(C)[C@@H](OC(=O)[C@H](O)[C@@H](NC(=O)OC(C)(C)C)c4ccccc4)C[C@@](O)([C@@H](OC(=O)c4ccccc4)[C@H]21)C3(C)C [Docetaxel] + CC(=O)c1c(C)c2cnc(Nc3ccc(N4CCNCC4)cn3)nc2n(C2CCCC2)c1=O [Palbociclib] (partner 0.5 µM) ... 0.448
2) CC(=O)O[C@@]12CO[C@@H]1C[C@H](O)[C@@]1(C)C(=O)[C@H](O)C3=C(C)[C@@H](OC(=O)[C@H](O)[C@@H](NC(=O)OC(C)(C)C)c4ccccc4)C[C@@](O)([C@@H](OC(=O)c4ccccc4)[C@H]21)C3(C)C [Docetaxel] + N=C(N)NC(=N)NCCc1ccccc1 [Phenformin] (partner 250 µM) ... 0.765
3) CC(=O)O[C@@]12CO[C@@H]1C[C@H](O)[C@@]1(C)C(=O)[C@H](O)C3=C(C)[C@@H](OC(=O)[C@H](O)[C@@H](NC(=O)OC(C)(C)C)c4ccccc4)C[C@@](O)([C@@H](OC(=O)c4ccccc4)[C@H]21)C3(C)C [Docetaxel] + CC(=O)Nc1cccc(-n2c(=O)n(C3CC3)c(=O)c3c(Nc4ccc(I)cc4F)n(C)c(=O)c(C)c32)c1 [Trametinib] (partner 0.02 µM) ... 0.507
